The measured values listed here are drawn from ChEMBL document CHEMBL1201862.

Would you mind telling me the reported GI50 of each entry?
Test system: DMS-273
procedure.summary: NCI tumour cell line growth inhibition, 48 h
Active and inactive are the calls of the source. No stated cut-off is given here; in the data, active = GI50 up to about 1.1 µM and inactive = higher.

Looking up O=[N+]([O-])c1ccc(-n2nnc(C3=NCCN3)c2-c2ccc(Cl)cc2)cc1 , I found its GI50 recorded as > 100 µM (inactive)

Looking up CC(C)CCS(=O)(=O)OCCCCOS(=O)(=O)CCC(C)C , I found its GI50 recorded as > 100 µM (inactive)

Looking up CC(C)(C)c1cc(C(=O)O)c2c(c1)C(=O)OC2(c1ccccc1)c1ccccc1C(=O)O (stereo not given) , I found its GI50 recorded as > 100 µM (inactive)

Looking up Cc1ccccc1-c1c(N)nc(N)nc1C(=O)Nc1nccs1 , I found its GI50 recorded as > 100 µM (inactive)

Looking up NNC(=O)/C(NC(=O)c1ccccc1)=C(\N)c1ccc(Cl)cc1 , I found its GI50 recorded as > 100 µM (inactive)

Looking up CNC(=O)CN1CC(=O)N(C)C(=O)C1 , I found its GI50 recorded as > 100 µM (inactive)

Looking up Cc1c(C2Cc3ccccc3N2C(=O)/C=C\C(=O)O)c2ccccc2n1C (stereo not given) , I found its GI50 recorded as 34.8 µM (inactive)

Looking up Cc1cnc2c(c1)C(=O)C1=C(OC(C)(C)CC1O)C2=O (stereo not given) , I found its GI50 recorded as 11.9 µM (inactive)

Looking up COc1ccc(CNc2cnc3cc(N)ccc3n2)cc1 , I found its GI50 recorded as > 100 µM (inactive)

Looking up CC(C)C(NCc1c2ccccc2nc2ccccc12)C(=O)O (stereo not given) , I found its GI50 recorded as 32.6 µM (inactive)

Looking up c1ccc(OCc2nnc3n2N=C(c2ccccc2)CS3)cc1 , I found its GI50 recorded as > 100 µM (inactive)

Looking up COc1cc(/C=C2\C(=O)N(C(=O)c3ccc(NC(C)=O)cc3)N=C2C)ccc1O , I found its GI50 recorded as > 100 µM (inactive)

Looking up O=[N+]([O-])c1ccc2nc(/C(=N\Nc3ccccc3)C(O)c3ccc4c(c3)OCO4)c(O)nc2c1 (stereo not given) , I found its GI50 recorded as 37.7 µM (inactive)

Looking up Cc1nc2ccccc2c(=O)n1/N=C(\N=N\c1ccccc1Cl)c1ccccc1 , I found its GI50 recorded as 31.6 µM (inactive)

Looking up NC1=NC(=O)/C(=C2\CCNC(=O)c3[nH]c(Br)cc32)N1 [HYMENIALDISINE] , I found its GI50 recorded as > 85.5 µM (inactive)

Looking up Nc1ncnc2c1ncn2CC(O)C(=O)O (stereo not given) , I found its GI50 recorded as > 100 µM (inactive)

Looking up COC1C(OC(=S)Nc2ccccc2)c2ccccc2N1C(C)=O (stereo not given) , I found its GI50 recorded as 85.3 µM (inactive)

Looking up O=C1c2ccccc2N2OC3C4CCC(C4)C3C12c1ccccc1 (stereo not given) , I found its GI50 recorded as 39.6 µM (inactive)

Looking up COc1ccc(-c2c(C3=NCCN3)nnn2-c2ccccc2)cc1 , I found its GI50 recorded as > 100 µM (inactive)

Looking up CCN/C(=N\Nc1ccc([N+](=O)[O-])cc1)P(=O)(OC(C)C)OC(C)C , I found its GI50 recorded as > 100 µM (inactive)
